Each entry below carries its reported pKd.
biological target: T1, human CD47 (human, UniProt Q08722 19-139); experiment: SPR as in Example 1
T1 construct: extracellular domain; also called CD47 ECD
T1 sequence (Q08722 19-139 limits assumed): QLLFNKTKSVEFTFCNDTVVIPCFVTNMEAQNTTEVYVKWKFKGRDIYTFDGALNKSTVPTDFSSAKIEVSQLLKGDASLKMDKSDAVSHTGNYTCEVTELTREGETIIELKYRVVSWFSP
A value of pKd is the negative decimal logarithm of a concentration given in moles per litre.

Worked cases, pKd given:
>>> datavalue("SIRP-α D1 variant fused to Fc variant, SEQ ID NO: 110 (Fc fusion) EEELQVIQPDKSVLVAAGETATLRCTITSLFPVGPIQWFRGAGPGRELIYNQREGPFPRVTTVSDLTKRNNMDFSIRIGAITPADAGTYYCVKFRKGSPDDVEFKSGAGTELSVRAKPSVECPPCPAPPVAGPSVFLFPPKPKDTLMISRTPEVTCVVVDVSHEDPEVQFNWYVDGVEVHNAKTKPREEQFASTFRVVSVLTVVHQDWLNGKEYKCKVSNKGLPSSIEKTISKTKGQPREPQVYTLPPSREEMTKNQVSLTCLVKGFYPSDIAVEWESNGQPENNYKTTPPMLDSDGSFFLYSKLTVDKSRWQQGNVFSCSVMHEALHNHYTQKSLSLSPGK")
9.19
>>> datavalue("SIRP-α D1 variant fused to Fc variant, SEQ ID NO: 135 (Fc fusion) EEELQVIQPDKSVLVAAGETATLRCTATSLFPVGPIQWFRGAGPGRELIYNQREGPFPRVTTVSDLTKRNNMDFSIRIGAITPADAGTYYCVKFRKGSPDDVEFKSGAGTELSVRAKPSDKTHTCPPCPAPEAAGAPSVFLFPPKPKDTLMISRTPEVTCVVVDVSHEDPEVKFNWYVDGVEVHNAKTKPREEQYASTYRVVSVLTVLHQDWLNGKEYKCKVSNKALPAPIEKTISKAKGQPREPQVYTLPPSREEMTKNQVSLTCLVKGFYPSDIAVEWESNGQPENNYKTTPPVLDSDGSFFLYSKLTVDKSRWQQGNVFSCSVMHEALHNHYTQKSLSLSPG")
8.46
>>> datavalue("SIRP-α D1 variant fused to Fc variant, SEQ ID NO: 100 (Fc fusion) EEELQVIQPDKSVLVAAGETATLRCTATSLFPVGPIQWFRGAGPGRELIYNQREGPFPRVTTVSDLTKRNNMDFSIRIGAITPADAGTYYCVKFRKGSPDDVEFKSGAGTELSVRAKPSDKTHTCPPCPAPEAAGAPSVFLFPPKPKDTLMISRTPEVTCVVVDVSHEDPEVKFNWYVDGVEVHNAKTKPREEQYASTYRVVSVLTVLHQDWLNGKEYKCKVSNKALPAPIEKTISKAKGQPREPQVYTLPPSREEMTKNQVSLTCLVKGFYPSDIAVEWESNGQPENNYKTTPPVLDSDGSFFLYSKLTVDKSRWQQGNVFSCSVMHEALHNHYTQKSLSLSPGK")
8.75

Determine from records and report pKd for SIRP-α D1 variant fused to Fc variant, SEQ ID NO: 111 (Fc fusion) EEELQIIQPDKSVLVAAGETATLRCTITSLFPVGPIQWFRGAGPGRELIYNQREGPFPRVTTVSDLTKRNNMDFSIRIGAITPADAGTYYCVKFRKGSPDDVEFKSGAGTELSVRAKPSVECPPCPAPPVAGPSVFLFPPKPKDTLMISRTPEVTCVVVDVSHEDPEVQFNWYVDGVEVHNAKTKPREEQFASTFRVVSVLTVVHQDWLNGKEYKCKVSNKGLPSSIEKTISKTKGQPREPQVYTLPPSREEMTKNQVSLTCLVKGFYPSDIAVEWESNGQPENNYKTTPPMLDSDGSFFLYSKLTVDKSRWQQGNVFSCSVMHEALHNHYTQKSLSLSPGK
9.50
